- testedOn: IKZF2 (Homo sapiens, UniProt Q96SW2+Q9UKS7)
- Construct: endogenous in cells; host or cells: MOLT4 (CRISPR/Cas9 HiBit knock-in at the IKZF2 locus)
- Sequence (Q9UKS7 whole entry): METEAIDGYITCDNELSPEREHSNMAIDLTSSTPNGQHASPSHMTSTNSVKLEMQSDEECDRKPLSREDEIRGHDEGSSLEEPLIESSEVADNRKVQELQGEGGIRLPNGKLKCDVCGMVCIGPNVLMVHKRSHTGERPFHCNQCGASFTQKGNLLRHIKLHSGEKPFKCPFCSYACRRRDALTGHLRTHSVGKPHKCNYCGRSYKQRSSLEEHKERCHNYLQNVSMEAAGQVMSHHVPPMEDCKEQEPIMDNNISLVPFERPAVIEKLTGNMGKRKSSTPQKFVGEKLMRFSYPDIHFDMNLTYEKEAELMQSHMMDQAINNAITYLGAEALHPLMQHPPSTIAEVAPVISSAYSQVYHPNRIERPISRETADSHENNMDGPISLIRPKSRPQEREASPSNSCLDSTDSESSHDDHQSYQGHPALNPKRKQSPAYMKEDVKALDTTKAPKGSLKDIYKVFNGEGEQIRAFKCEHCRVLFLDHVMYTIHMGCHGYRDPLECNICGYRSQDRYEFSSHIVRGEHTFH
- Sequence (Q96SW2 whole entry): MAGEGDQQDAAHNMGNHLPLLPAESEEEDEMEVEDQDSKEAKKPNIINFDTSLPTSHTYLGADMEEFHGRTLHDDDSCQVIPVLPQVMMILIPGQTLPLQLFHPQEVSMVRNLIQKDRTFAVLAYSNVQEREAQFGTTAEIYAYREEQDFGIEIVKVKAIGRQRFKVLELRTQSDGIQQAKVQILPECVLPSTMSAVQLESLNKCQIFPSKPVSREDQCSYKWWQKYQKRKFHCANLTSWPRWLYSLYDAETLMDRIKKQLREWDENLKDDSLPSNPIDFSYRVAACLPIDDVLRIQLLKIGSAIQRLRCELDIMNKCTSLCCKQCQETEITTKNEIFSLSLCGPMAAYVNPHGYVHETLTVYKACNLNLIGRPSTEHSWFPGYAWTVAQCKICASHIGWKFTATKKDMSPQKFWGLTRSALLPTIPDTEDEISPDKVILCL
- Sequence (Q16531 whole entry partner): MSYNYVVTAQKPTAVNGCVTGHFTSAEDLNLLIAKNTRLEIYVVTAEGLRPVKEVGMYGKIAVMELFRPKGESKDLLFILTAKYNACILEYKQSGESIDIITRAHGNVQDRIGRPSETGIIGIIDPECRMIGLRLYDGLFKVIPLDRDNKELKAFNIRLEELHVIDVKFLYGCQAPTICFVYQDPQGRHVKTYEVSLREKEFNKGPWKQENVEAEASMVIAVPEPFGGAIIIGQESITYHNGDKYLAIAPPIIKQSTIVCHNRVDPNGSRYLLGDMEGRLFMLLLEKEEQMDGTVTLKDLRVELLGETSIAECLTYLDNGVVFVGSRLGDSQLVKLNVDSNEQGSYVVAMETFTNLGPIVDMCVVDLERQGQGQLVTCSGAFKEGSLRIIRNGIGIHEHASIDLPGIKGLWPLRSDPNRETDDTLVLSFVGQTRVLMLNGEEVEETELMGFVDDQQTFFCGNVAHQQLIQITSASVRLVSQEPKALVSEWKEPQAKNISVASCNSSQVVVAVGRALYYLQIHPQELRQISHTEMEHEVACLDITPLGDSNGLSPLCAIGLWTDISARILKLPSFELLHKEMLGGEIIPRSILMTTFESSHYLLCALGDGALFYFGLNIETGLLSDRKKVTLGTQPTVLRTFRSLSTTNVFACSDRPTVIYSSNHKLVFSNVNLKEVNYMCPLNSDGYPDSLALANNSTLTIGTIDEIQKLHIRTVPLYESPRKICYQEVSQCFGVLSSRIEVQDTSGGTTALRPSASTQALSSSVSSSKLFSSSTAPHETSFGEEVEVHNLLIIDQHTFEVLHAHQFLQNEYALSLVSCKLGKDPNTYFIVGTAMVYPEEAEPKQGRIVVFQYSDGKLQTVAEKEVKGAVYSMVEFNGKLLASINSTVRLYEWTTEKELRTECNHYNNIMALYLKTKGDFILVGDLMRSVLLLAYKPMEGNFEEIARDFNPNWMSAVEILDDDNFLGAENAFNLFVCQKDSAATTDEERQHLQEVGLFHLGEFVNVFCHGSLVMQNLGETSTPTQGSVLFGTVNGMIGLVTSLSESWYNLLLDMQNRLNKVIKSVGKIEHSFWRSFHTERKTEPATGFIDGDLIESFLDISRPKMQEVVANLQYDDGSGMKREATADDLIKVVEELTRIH
- procedureSummary: MOLT4 IKZF2 HiBit assay
- Assay type: cell-based
- conditionParameters: MOLT-4; MOLT4 IKZF2 HiBit cells, 30 μM, 6 hr (Dmax); read-out: % reduction of IKZF2 @ 30 μM (6 hr)
Structures can show the parent of a compound that is named as a salt.
Attribute: Dmax at 30 µM
Quick note: give the figure in %, leave out the unit.

compound	measureName	value
CC(c1ccccc1)N1CCC(O)(c2ccc3c(c2)C(=O)N(C2CCC(=O)NC2=O)C3=O)CC1 (stereo not drawn) [Compound 35, HCl salt]	Dmax at 30 µM	84
Cn1ncc2cc(CN3CCC(O)(c4ccc5c(c4)C(=O)N(C4CCC(=O)NC4=O)C5=O)CC3)ccc21 (stereo not drawn) [Compound 145, formic acid salt]	Dmax at 30 µM	83

Endpoint output: Dmax at 30 µM of O=C1CCC(N2C(=O)c3ccc(C4(O)CCN(Cc5coc(-c6ccccc6)n5)CC4)cc3C2=O)C(=O)N1 (stereo not drawn) [Compound 91, HCl salt] . Value?
60

* * *

- testedOn: hERG (Homo sapiens, UniProt Q12809)
- Sequence (Q12809 whole entry): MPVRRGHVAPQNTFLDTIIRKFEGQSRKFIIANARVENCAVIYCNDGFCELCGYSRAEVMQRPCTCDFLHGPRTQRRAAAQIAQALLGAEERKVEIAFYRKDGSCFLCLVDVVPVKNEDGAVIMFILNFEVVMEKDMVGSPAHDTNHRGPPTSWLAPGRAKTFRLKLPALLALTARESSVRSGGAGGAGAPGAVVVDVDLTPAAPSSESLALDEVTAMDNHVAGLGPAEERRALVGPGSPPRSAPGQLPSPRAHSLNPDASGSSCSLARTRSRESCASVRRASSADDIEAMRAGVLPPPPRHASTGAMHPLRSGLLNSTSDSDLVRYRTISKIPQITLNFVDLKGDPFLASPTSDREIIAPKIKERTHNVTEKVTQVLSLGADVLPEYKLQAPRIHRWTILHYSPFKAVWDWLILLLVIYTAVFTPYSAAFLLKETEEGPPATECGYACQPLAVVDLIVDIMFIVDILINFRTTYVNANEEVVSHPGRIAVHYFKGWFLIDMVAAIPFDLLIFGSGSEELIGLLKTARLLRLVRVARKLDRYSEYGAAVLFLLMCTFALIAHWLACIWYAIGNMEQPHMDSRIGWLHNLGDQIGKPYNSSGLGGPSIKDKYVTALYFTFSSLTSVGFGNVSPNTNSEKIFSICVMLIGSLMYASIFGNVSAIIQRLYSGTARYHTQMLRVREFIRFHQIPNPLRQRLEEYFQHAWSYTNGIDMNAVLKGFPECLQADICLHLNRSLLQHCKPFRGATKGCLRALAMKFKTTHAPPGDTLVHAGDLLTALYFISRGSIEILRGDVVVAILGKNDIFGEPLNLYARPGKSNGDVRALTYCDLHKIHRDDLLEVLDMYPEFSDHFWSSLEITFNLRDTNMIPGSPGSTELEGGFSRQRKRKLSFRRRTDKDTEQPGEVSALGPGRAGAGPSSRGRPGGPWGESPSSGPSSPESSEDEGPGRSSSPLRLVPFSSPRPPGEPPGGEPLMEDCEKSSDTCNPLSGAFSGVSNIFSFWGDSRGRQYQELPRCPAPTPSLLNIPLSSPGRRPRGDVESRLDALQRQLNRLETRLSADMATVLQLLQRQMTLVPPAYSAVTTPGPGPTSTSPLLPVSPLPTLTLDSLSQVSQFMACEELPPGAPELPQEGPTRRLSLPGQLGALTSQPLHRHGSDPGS
- procedureSummary: hERG IC50
- conditionParameters: human
measureName: IC50 (µM)
Field format: number, assumed µM, no unit text.

Entry O=C1CCC(N2C(=O)c3ccc(C4(O)CCN(Cc5ccc(F)cc5)CC4)c(F)c3C2=O)C(=O)N1 (stereo not shown) has what IC50?
30

* * *

- testedOn: IKZF2 (Homo sapiens, UniProt Q96SW2+Q9UKS7)
- Construct: endogenous in cells; host or cells: MOLT4 (CRISPR/Cas9 HiBit knock-in at the IKZF2 locus)
- procedureSummary: MOLT4 IKZF2 HiBit assay
- Assay type: cell-based
- conditionParameters: MOLT-4; MOLT4 IKZF2 HiBit cells, 30 μM, 6 hr (Dmax); read-out: % reduction of IKZF2 @ 30 μM (6 hr)
Where a name gives a salt, the structure may show the parent alone.
Parameter Dmax at 30 µM: see the listing below.
Give the value in % but do not write % after it.

// solved cases for Dmax at 30 µM follow
compound	unitAnnotation	Dmax at 30 µM
O=C1CCC(N2C(=O)c3ccc(C4(O)CCN(Cc5ccc6scnc6c5)CC4)cc3C2=O)C(=O)N1 (stereo not shown) [Compound 111, HCl salt]	%	83
O=C1CCC(N2C(=O)c3ccc(C4(O)CCN(C5CCc6ncccc65)CC4)cc3C2=O)C(=O)N1 (stereo not shown) [Compound 7, HCl salt]	%	90
O=C1CCC(N2C(=O)c3ccc(C4(O)CCN(Cc5ccccn5)CC4)cc3C2=O)C(=O)N1 (stereo not shown) [Compound 68, HCl salt]	%	71
COC[C@H]1CC[C@H](CN2CCC(O)(c3ccc4c(c3)C(=O)N(C3CCC(=O)NC3=O)C4=O)CC2)CC1 (stereo partly shown)	%	60
O=C1CCC(N2C(=O)c3ccc(C4(O)CCN(Cc5ccncc5)CC4)cc3C2=O)C(=O)N1 (stereo not shown) [Compound 70, HCl salt]	%	78
O=C1CCC(N2C(=O)c3ccc(C4(O)CCN(Cc5ccc6ncn(-c7ccccn7)c(=O)c6c5)CC4)cc3C2=O)C(=O)N1 (stereo not shown)	%	72

Moving on to the next compound.
Query: Dmax at 30 µM; subject: O=C1CCC(N2C(=O)c3ccc(C4(O)CCN(Cc5ccc(F)cc5)CC4)c(F)c3C2=O)C(=O)N1 (stereo not shown)
79
